// reported viability per item
# protocol_text: SK-BR-3 cell growth inhibitors, pilot screen, 24 h, human (AID 572);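 note: compound exposure lasted between 18 and 24 h rather than exactly 24 h; 100% = carrier-treated control wells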
# cond: SK-BR-3 viability, CellTiter-Glo luminescence, at 10 µM, stronger effect = lower value
property_label: viability (%)

INSERT INTO assay_data (compound, property_label, value_observed) VALUES
  ('N#Cc1c(N)n(CCNC(=O)c2cccs2)c2nc3ccccc3nc12', 'viability', 82.5),
  ('CN(C)c1nc(Nc2ccc(Cl)cc2)nc(OCC#N)n1', 'viability', 105),
  ('CC(=O)N(C)C1(c2nnnn2CCOC(=O)Nc2ccc(Cl)cc2)CCCCC1', 'viability', 114),
  ('CCOC(=O)Cn1nc(-c2ccc(C)cc2)ccc1=O', 'viability', 99),
  ('CCOc1cc(C)c(Cl)cc1S(=O)(=O)N(C)C', 'viability', 106),
  ('Cc1cc(C)n2cc(CSc3nnnn3C)nc2n1', 'viability', 84.5),
  ('CCC(c1nnnn1CCOC)N(Cc1ccc(C)cc1)Cc1cc2cc(OC)ccc2[nH]c1=O (stereo unspecified)', 'viability', 115),
  ('CCOc1ccccc1NC(=O)C1CCCN(C(=O)NCc2ccccc2)C1 (stereo unspecified)', 'viability', 102),
  ('CCOC(=O)c1sc(C)c2c(=O)n(CC)nnc12', 'viability', 94),
  ('Cn1cnc(S(=O)(=O)Nc2ccc(C(F)(F)F)cc2)c1', 'viability', 86),
  ('COC(=O)C1=CN(C(C)C)C=C(C(=O)OC)C1c1cc2c(cc1Br)OCO2', 'viability', 92.5);

====

// reported viability per item
# protocol_text: reversal of MRP1-mediated doxorubicin resistance, pilot screen, H69AR cells, doxorubicin co-treatment (AID 601)
# cond: H69AR cells + 2 uM doxorubicin, CellTiter-Glo, 72 h; measured here: viability with 2 uM doxorubicin; at 10 µM; stronger effect = lower value
property_label: viability (%)

INSERT INTO assay_data (molecule, property_label, value_observed) VALUES
  ('CCN1CCN(C(=O)c2ccc3c(=O)n(C4CCCC4)c(=S)[nH]c3c2)CC1', 'viability', 74.8),
  ('Nc1sccc1C(=O)c1ccc(Cl)cc1', 'viability', 85.3),
  ('CCOC(=O)c1cc2sccc2n1CC(=O)Nc1ccc(OC)cc1OC', 'viability', 89.6),
  ('CCCCC(c1nnnn1CS(=O)(=O)c1ccc(C)cc1)N1CCN(c2ccccc2)CC1 (stereo unspecified)', 'viability', 91.3),
  ('CC1(C)CC(CCNC(=O)c2ccco2)CC(C)(C)N1', 'viability', 95.8),
  ('Cc1nc2ccccc2c(=O)n1CC(=O)N1CCOCC1', 'viability', 99.8),
  ('Cn1c(=O)c2c(ncn2CC(O)CNc2ccc(Cl)cc2)n(C)c1=O (stereo unspecified)', 'viability', 89.5),
  ('O=C(Nc1ccc(F)cc1)c1cccc2c1C(=O)N(Cc1ccccn1)C2', 'viability', 79.9),
  ('Cc1ccc(S(=O)(=O)Nc2nc3ccccc3nc2NCc2ccco2)cc1', 'viability', 21.9),
  ('COc1ccccc1N1CCN(C(=O)c2oc3cc(C)c(C)cc3c2C)CC1', 'viability', 94.9),
  ('O=S(=O)(c1ccccc1)c1nc(-c2cccs2)oc1NCC1CCCO1 (stereo unspecified)', 'viability', 102);

Source listed as PubChem BioAssay.
